Measured values drawn from patent US20170101476A1 for this set.

system.tested: T1, Cynomolgus CXCR2 (cynomolgus, UniProt Q28519 3-353 (rhesus entry))
T1 chain: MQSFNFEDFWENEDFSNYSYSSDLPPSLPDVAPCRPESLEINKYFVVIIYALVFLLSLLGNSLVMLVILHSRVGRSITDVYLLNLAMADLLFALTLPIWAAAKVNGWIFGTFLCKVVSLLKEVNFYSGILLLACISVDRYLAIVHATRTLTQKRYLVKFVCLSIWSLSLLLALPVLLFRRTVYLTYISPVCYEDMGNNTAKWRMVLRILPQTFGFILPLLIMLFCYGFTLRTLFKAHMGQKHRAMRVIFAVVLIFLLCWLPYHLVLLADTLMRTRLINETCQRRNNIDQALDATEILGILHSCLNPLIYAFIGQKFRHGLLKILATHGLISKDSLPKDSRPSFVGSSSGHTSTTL
protocol.notes: cell-based or functional assay
API: label(entry) gives Y if the entry's FLIPR IC50, GRO-α induced intracellular calcium release is strictly smaller than 20 nM; on equality or larger values it gives N.

binder: CXCR20021 (bispecific antibody, not shown: small tags and cut ends) EVQLVESGGGLVQAGESLRLSCAASGSTFDFKVMGWYRQPPGKQREGVAAIRLSGNMHYAESVKGRFTISKANAKNTVYLQMNSLRPEDTAVYYCKVNIRGQDYWGQGTQVTVSSGGGGSGGGGSGGGGSGGGGSGGGGSGGGGSGGGGSEVQLVESGGGLVQPGGSLRLSCVASGRIFSSNAMGWFRQAPGKEREFVAAITWRSGGSAYYADSAKGRFTISRDNAKNTVYLQMNSLKPEDTAVYYCAAGGSSWLSFPPDYWGQGTQVTVSS
label.class: Y
--
binder: CXCR20017 (other, not shown: small tags and cut ends) EVQLVESGGGLVQPGGSLRLSCVASGSIVRINTMGWYRQTPGKQRELVADITSGGNINYIDAVKGRFTISRDNTKNTVYLQMNSLKPEDTAVYYCNAEIVVLVGVWTQRARTGNYWGQGTQVTVSSGGGGSGGGGSGGGGSGGGGSGGGGSGGGGSGGGGSEVQLVESGGGLVQPGGSVRLSCVASGIIFRLSALGWTRQGPGKAREWVAGINSDGTTNYADPVKGRFTISRDNAKNTIYLHMDMLKPEDTAVYYCASGKYRGQGTQVTVSS
label.class: N
--
binder: CXCR20023 (bispecific antibody, not shown: small tags and cut ends) EVQLVESGGGLVQAGGSLRLSCAASGRTFSDYAMGWFRQAPGKEREFVAAITWNGGRVFYTASVKGRFTISRDNAKNTMYLQMNSLKPEDTAVYYCAADKDRRTDYLGHPVAYWGQGTQVTVSSGGGGSGGGGSGGGGSGGGGSGGGGSGGGGSGGGGSEVQLVESGGGLVQPGGSLRLSCVASGRIFSSNAMGWFRQAPGKEREFVAAITWRSGGSAYYADSAKGRFTISRDNAKNTVYLQMNSLKPEDTAVYYCAAGGSSWLSFPPDYWGQGTQVTVSS
label.class: Y
--
binder: CXCR20033 (bispecific antibody, not shown: small tags and cut ends) EVQLVESGGGLVQPGGSLRLSCVASGRIFSSNAMGWFRQAPGKEREFVAAITWRSGGSAYYADSAKGRFTISRDNAKNTVYLQMNSLKPEDTAVYYCAAGGSSWLSFPPDYWGQGTQVTVSSGGGGSGGGGSGGGGSGGGGSGGGGSGGGGSGGGGSEVQLVESGGELVQPGGSLRLSCAASGSILTINAMGWYRQAPGKQRELVVRRTRGGSTTYQDSVKGRFTISADIAKKTMYLQMNSLKPEDTAVYYCMLDDRGGVYWGQGTQVTVSS
label.class: Y

Now examine the next entry.
Bench note: check whether CXCR20028 (other, not shown: small tags and cut ends) EVQLVESGGGLVQPGGSLRLSCVASGSIVRINTMGWYRQTPGKQRELVADITSGGNINYIDAVKGRFTISRDNTKNTVYLQMNSLKPEDTAVYYCNAEIVVLVGVWTQRARTGNYWGQGTQVTVSSGGGGSGGGGSGGGGSGGGGSGGGGSGGGGSGGGGSEVQLVESGGGLVQAGGSLTLSCAVSGSTFRINTMGWYRRAPGKQRELVAARDRGGYINYVDSVKGRFTVSRDNAKPTMYLQMNSLKPEDTAVYYCHAGTQDRTGRNFDRWGQGTQVTVSS shows FLIPR IC50, GRO-α induced intracellular calcium release below 20 nM
Y
